# ASSAY_OVERVIEW: RP, Merck Supelco Ascentis Express C18, 100 × 2.1 mm, 2 µm, 40 °C, 0.2 mL/min, estimated dead time 1.1 min; A: water + 0.1% formic acid, pH 3; B: acetonitrile + 0.1% formic acid, pH 3; gradient (min/%B) 0/5 2/5 17/99.9 20/99.9
# APPLIED_CONDITIONS: stereoisomer not certain
This listing pairs compounds with measured LC retention time.
READOUT_KIND: LC retention time

1. CCCCCCCCCCCCCCCC(O)C(N)CO (stereo unspecified) : 12.1 min
2. Cn1c(=O)c2c(ncn2C)n(C)c1=O : 4.96 min
3. O=C(O)c1cc(=O)c2cccc(O)c2[nH]1 [XANTHURENATE] : 4.15 min
4. CCCCCCCCCC(=O)O [DECANOATE] : 12.7 min
5. Cn1c(=O)c2[nH]cnc2n(C)c1=O : 3.96 min
6. CC(=O)NC(CS)C(=O)O (stereo unspecified) : 1.92 min

----------
# ASSAY_OVERVIEW: RP, Merck Supelco Ascentis Express C18, 100 × 2.1 mm, 2 µm, 40 °C, 0.35 mL/min, estimated dead time 0.63 min; A: water + 0.1% formic acid, pH 3; B: acetonitrile + 0.1% formic acid, pH 3; gradient (min/%B) 0/5 2/5 17/99.9 20/99.9
# APPLIED_CONDITIONS: stereoisomer not certain
Exam item: assign Y to entries whose LC retention time is below 2 min and N to entries at or above 2 min. Note that a value of exactly 2 min receives N.

1. CCCCC(N)C(=O)O (stereo unspecified) : Y
2. O=Cc1cccc(O)c1 [3-HYDROXYBENZALDEHYDE] : N
3. CSc1ncnc2nc[nH]c12 : N
4. CC(=O)NC(Cc1ccccc1)C(=O)O (stereo unspecified) : N
5. CCCCCCSCC(NC(=O)CCC(N)C(=O)O)C(=O)NCC(=O)O (stereo unspecified) : N
6. COc1cc(CC(=O)O)ccc1O [HOMOVANILLATE] : N
7. O=C(O)CCc1ccccc1O [3-(2-HYDROXYPHENYL)PROPANOATE] : N
8. CC(CCC(=O)NCC(=O)O)C1CCC2C3C(O)CC4CC(O)CCC4(C)C3CCC12C (stereo unspecified) [GLYCOCHENODEOXYCHOLATE] : N
9. CC(CCC(=O)O)C(=O)O (stereo unspecified) [2-METHYLGLUTARATE] : N
10. O=C(O)c1ccc(=O)[nH]c1 [6-HYDROXYNICOTINATE] : Y
11. OCCc1c[nH]c2ccccc12 : N
12. COc1cc(C=CC(=O)O)ccc1O [FERULATE] : N
13. CCC(C(=O)O)C(=O)O [ETHYLMALONATE] : Y
14. CC(CCC(=O)O)C1CCC2C3CCC4CC(O)CCC4(C)C3CC(O)C12C (stereo unspecified) [DEOXYCHOLATE] : N
15. O=C(O)CCCC(=O)C(=O)O [OXOADIPATE] : Y
16. O=C(O)CNC(=O)c1ccccc1 [HIPPURATE] : N
17. O=c1[nH]c(=O)c2nccnc2[nH]1 [2,4-DIHYDROXYPTERIDINE] : Y
18. O=C([O-])Cc1ccccc1 [PHENYLACETATE] : N
19. N[C@@H](Cc1ccc(O)c([N+](=O)[O-])c1)C(=O)O : Y
20. NC(=O)[C@@H](N)Cc1c[nH]c2ccccc12 [L-TRYPTOPHANAMIDE] : Y
21. NCC(=O)CCC(=O)O [5-AMINOLEVULINATE] : Y
